target: RAC-beta serine/threonine-protein kinase (Homo sapiens, UniProt P31751); assay: Inhibition of Akt2
Sequence (P31751 whole entry): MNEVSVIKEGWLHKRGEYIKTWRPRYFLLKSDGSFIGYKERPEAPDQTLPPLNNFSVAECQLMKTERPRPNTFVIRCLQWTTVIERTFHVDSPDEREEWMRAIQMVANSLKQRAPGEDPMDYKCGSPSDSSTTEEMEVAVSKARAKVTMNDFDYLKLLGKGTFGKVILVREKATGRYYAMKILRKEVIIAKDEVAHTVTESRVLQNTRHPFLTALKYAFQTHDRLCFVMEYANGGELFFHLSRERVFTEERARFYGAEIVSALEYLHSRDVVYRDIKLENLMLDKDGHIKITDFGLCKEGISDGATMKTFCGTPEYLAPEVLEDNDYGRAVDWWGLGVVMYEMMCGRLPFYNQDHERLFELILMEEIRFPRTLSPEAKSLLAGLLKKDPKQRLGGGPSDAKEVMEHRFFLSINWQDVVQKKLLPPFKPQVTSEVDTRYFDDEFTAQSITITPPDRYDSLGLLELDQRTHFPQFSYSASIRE
pIC50: −log10 of the molar value.
recordedMetric: pIC50

| structureSmilesString | targetUnderTest | recordedMetric | reportedValue |
| --- | --- | --- | --- |
| CSc1ncc2cc(-c3ccccc3)c(-c3ccc(CNCCc4nccs4)cc3)nc2n1 | RAC-beta serine/threonine-protein kinase (Homo sapiens, UniProt P31751) | pIC50 | 5.86 |
| CSc1ncc2cc(-c3ccccc3)c(-c3ccc(CNCCc4nnc(-c5ccccc5)[nH]4)cc3)nc2n1 | RAC-beta serine/threonine-protein kinase (Homo sapiens, UniProt P31751) | pIC50 | 6.31 |
| NC(=O)c1ncc2cc(-c3ccccc3)c(-c3ccc(CN4CCC(c5nnc(-c6ccccn6)[nH]5)CC4)cc3)nc2n1 | RAC-beta serine/threonine-protein kinase (Homo sapiens, UniProt P31751) | pIC50 | 7.46 |
| CNc1ncc2cc(-c3ccccc3)c(-c3ccc(CN4CCC(c5nnc(-c6ccccn6)[nH]5)CC4)cc3)nc2n1 | RAC-beta serine/threonine-protein kinase (Homo sapiens, UniProt P31751) | pIC50 | 7.03 |
| CSc1ncc2cc(-c3ccccc3)c(-c3ccc(CNCCCN4CCN(C)CC4)cc3)nc2n1 | RAC-beta serine/threonine-protein kinase (Homo sapiens, UniProt P31751) | pIC50 | 5.05 |
| CSc1ncc2cc(-c3ccccc3)c(-c3ccc(CN4CCC(C(=O)Nc5ccncc5)CC4)cc3)nc2n1 | RAC-beta serine/threonine-protein kinase (Homo sapiens, UniProt P31751) | pIC50 | 6.52 |

====

target: RAC-alpha serine/threonine-protein kinase (Homo sapiens); test: Inhibition of Akt1
Sequence (P31749 whole entry): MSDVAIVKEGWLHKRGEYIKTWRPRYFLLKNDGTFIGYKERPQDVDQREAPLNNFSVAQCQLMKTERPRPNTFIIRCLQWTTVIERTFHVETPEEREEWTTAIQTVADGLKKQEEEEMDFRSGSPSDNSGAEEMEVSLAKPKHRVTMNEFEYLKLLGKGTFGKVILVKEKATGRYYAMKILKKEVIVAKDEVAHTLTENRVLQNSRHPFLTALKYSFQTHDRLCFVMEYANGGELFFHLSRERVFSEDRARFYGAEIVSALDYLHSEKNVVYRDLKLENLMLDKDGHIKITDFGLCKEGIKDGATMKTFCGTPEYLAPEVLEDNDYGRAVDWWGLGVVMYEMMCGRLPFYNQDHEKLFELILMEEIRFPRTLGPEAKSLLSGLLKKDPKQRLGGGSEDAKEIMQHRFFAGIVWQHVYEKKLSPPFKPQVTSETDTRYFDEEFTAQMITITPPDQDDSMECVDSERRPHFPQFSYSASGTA
recordedMetric: log10(IC50) (log10 of the value in nM)

| structureSmilesString | recordedMetric | reportedValue |
| --- | --- | --- |
| Nc1ncnc2nc(-c3ccc(CN4CCC(n5ncc6c(N)ncnc65)CC4)cc3)c(-c3ccccc3)cc12 | log10(IC50) | 1.15 |
| CSc1ncc2cc(-c3ccccc3)c(-c3ccc(CNCCc4nnc(-c5ccccc5)[nH]4)cc3)nc2n1 | log10(IC50) | 1.80 |
| CSc1ncc2cc(-c3ccccc3)c(-c3ccc(CN4CCC(n5ncc6c(N)ncnc65)CC4)cc3)nc2n1 | log10(IC50) | 0.60 |
| CSc1ncc2cc(-c3ccccc3)c(-c3ccc(CNCCCn4ccnc4)cc3)nc2n1 | log10(IC50) | 2.14 |
| CSc1ncc2cc(-c3ccccc3)c(-c3ccc(CNCCc4nnc(C)[nH]4)cc3)nc2n1 | log10(IC50) | 2.21 |
| COc1ncc2cc(-c3ccccc3)c(-c3ccc(CN4CCC(c5nnc(-c6ccccn6)[nH]5)CC4)cc3)nc2n1 | log10(IC50) | 1.37 |
| CSc1ncc2cc(-c3ccccc3)c(-c3ccc(CN4CCC(C(=O)NCCC(N)=O)CC4)cc3)nc2n1 | log10(IC50) | 1.96 |
| CSc1ncc2cc(-c3ccccc3)c(-c3ccc(CN4CCC(c5cc(-c6ccncc6)[nH]n5)CC4)cc3)nc2n1 | log10(IC50) | 0.65 |
| CSc1ncc2cc(-c3ccccc3)c(-c3ccc(CNCCc4cccnc4)cc3)nc2n1 | log10(IC50) | 1.95 |

====

target: RAC-beta serine/threonine-protein kinase (Homo sapiens, UniProt P31751); assay: Inhibition of Akt2 in human C33A cells by immunoprecipitation kinase assay; format: cell-based, C-33-A
pIC50: −log10 of the molar value.
Lab note: anything with pIC50 at or over 6 counts as label 1; the rest go in label 0.

| structureSmilesString | assignedLabel |
| --- | --- |
| NC(=O)c1ncc2cc(-c3ccccc3)c(-c3ccc(CN4CCC(c5nnc(-c6ccccn6)[nH]5)CC4)cc3)nc2n1 | label 0 |
| N#Cc1ncc2cc(-c3ccccc3)c(-c3ccc(CN4CCC(c5nnc(-c6ccccn6)[nH]5)CC4)cc3)nc2n1 | label 1 |
| CSc1ncc2cc(-c3ccccc3)c(-c3ccc(CN4CCC(c5nnc(N)s5)CC4)cc3)nc2n1 | label 0 |
| COc1ncc2cc(-c3ccccc3)c(-c3ccc(CN4CCC(c5nnc(-c6ccccn6)[nH]5)CC4)cc3)nc2n1 | label 0 |
| Nc1ncnc2nc(-c3ccc(CN4CCC(c5nc6ccc(F)cc6[nH]5)CC4)cc3)c(-c3ccccc3)cc12 | label 0 |
| CSc1ncc2cc(-c3ccccc3)c(-c3ccc(CN4CCC(c5cc(-c6ccncc6)[nH]n5)CC4)cc3)nc2n1 | label 1 |
| CSc1ncc2cc(-c3ccccc3)c(-c3ccc(CN4CCC(c5nnc(-c6ccccn6)[nH]5)CC4)cc3)nc2n1 | label 1 |
| CSc1ncc2cc(-c3ccccc3)c(-c3ccc(CN4CCC(C(N)=O)CC4)cc3)nc2n1 | label 0 |
| CCNC(=O)NC1CCN(Cc2ccc(-c3nc4nc(SC)ncc4cc3-c3ccccc3)cc2)CC1 | label 0 |
| Nc1ncnc2nc(-c3ccc(CN4CCC(n5ncc6c(N)ncnc65)CC4)cc3)c(-c3ccccc3)cc12 | label 1 |

Reference for the values: ChEMBL document CHEMBL1141509
